tested on: IL-2 production; experiment: IL-2 production by PHA-stimulated human peripheral lymphocytes (ELISA); assay type: cell-based; settings: Lymphocyte, PHA 10 μl/ml, 48 h, compound 0.1-100 μM
# note: boundary value 3000 nM maps to -1; IC50 below it maps to 1

> print(dat)
                                   compound  label.class
1  O=C1C=CCC(CCc2cccc(O)c2)CCC1 (stereo not shown)            1
2  O=C1C=CCC(CCc2ccccc2)C[C@@H](O)[C@H]1O (mixture of isomers)           -1
3  O=C(OC1CC/C=C\C(=O)[C@H](O)[C@H](O)CC1)c1ccccc1O (mixture of isomers)            1
4  O=C1/C=C\CCC(Cc2ccccc2)CCCC1 (stereo not shown)            1
5  O=C1C=CCC(CCc2ccccc2O)C[C@@H](O)[C@H]1O (mixture of isomers)           -1
6  O=C1C=CCC(CCc2ccccc2)CCC1 (stereo not shown)            1
